Test system: PC-14
EXPERIMENT_NOTES: relative viability (nuclei count vs DMSO), 5 days (fraction); higher = more cells survive
CONDITION: first compound 0.4 µM
# Lookup of reported relative viability keyed by entry

Check out these entries, answers already filled in.
MOLECULE	MEASURED_ON	RESULT
C[C@@H]1CN(CC(=O)Nc2ccc3c(c2)Cc2cccc(-c4cc(=O)cc(N5CCOCC5)o4)c2S3)C[C@H](C)O1 + Cc1cc(Nc2cc(N3CCN(C)CC3)nc(Sc3ccc(NC(=O)C4CC4)cc3)n2)n[nH]1 [Tozasertib] (partner 0.1 µM)	PC-14	0.579
C[C@@H]1CN(CC(=O)Nc2ccc3c(c2)Cc2cccc(-c4cc(=O)cc(N5CCOCC5)o4)c2S3)C[C@H](C)O1 + CC(=O)Nc1cccc(-n2c(=O)n(C3CC3)c(=O)c3c(Nc4ccc(I)cc4F)n(C)c(=O)c(C)c32)c1 [Trametinib] (partner 0.02 µM)	PC-14	0.719

Pending molecule:
IN: Item Clc1ccc(Nc2nnc(Cc3ccncc3)c3ccccc23)cc1 [Vatalanib] + Cc1nc(NC(=O)N2CCC[C@H]2C(N)=O)sc1-c1ccnc(C(C)(C)C(F)(F)F)c1 [Alpelisib] (partner 2 µM) : provide relative viability
OUT: 0.97

====

Test system: LU99A
EXPERIMENT_NOTES: relative viability (nuclei count vs DMSO), 5 days (fraction); higher = more cells survive
CONDITION: first compound 1.265 µM
MEASUREMENT_NAME: relative viability
Reply: number alone, nothing else.

MOLECULE	MEASUREMENT_NAME	QUANTITATIVE_READOUT
Clc1ccc(Nc2nnc(Cc3ccncc3)c3ccccc23)cc1 [Vatalanib] + CC(=O)c1c(C)c2cnc(Nc3ccc(N4CCNCC4)cn3)nc2n(C2CCCC2)c1=O [Palbociclib] (partner 0.5 µM)	relative viability	0.355
Clc1ccc(Nc2nnc(Cc3ccncc3)c3ccccc23)cc1 [Vatalanib] + COc1cccc2cc(-c3nc([C@H]4CC[C@H](C(=O)O)CC4)n4ncnc(N)c34)[nH]c12 [OSI-027] (partner 0.5 µM)	relative viability	0.307
COc1cc(N2CCC(C(N)=O)CC2)ccc1Nc1nc(N)c(Cl)c(Nc2ccccc2S(=O)(=O)C(C)C)n1 [HG-5-88-01] + CCNC(=O)c1noc(-c2cc(C(C)C)c(O)cc2O)c1-c1ccc(CN2CCOCC2)cc1 [Luminespib] (partner 0.01 µM)	relative viability	0.275

IN: Item Clc1ccc(Nc2nnc(Cc3ccncc3)c3ccccc23)cc1 [Vatalanib] + COc1cc2c(Oc3ccc(NC(=O)C4(C(=O)Nc5ccc(F)cc5)CC4)cc3F)ccnc2cc1OCCCN1CCOCC1 [Foretinib] (partner 0.25 µM) : provide relative viability
OUT: 0.75

IN: Item Clc1ccc(Nc2nnc(Cc3ccncc3)c3ccccc23)cc1 [Vatalanib] + Cc1nc(NC(=O)N2CCC[C@H]2C(N)=O)sc1-c1ccnc(C(C)(C)C(F)(F)F)c1 [Alpelisib] (partner 2 µM) : provide relative viability
OUT: 0.503

====

Tested on: RERF-LC-KJ
EXPERIMENT_NOTES: relative viability (nuclei count vs DMSO), 5 days (fraction); higher = more cells survive
CONDITION: first compound 1.265 µM
MEASUREMENT_NAME: relative viability
Reply: number alone, nothing else.

MOLECULE	relative viability
Clc1ccc(Nc2nnc(Cc3ccncc3)c3ccccc23)cc1 [Vatalanib] + CC1(C)CCC(c2ccc(Cl)cc2)=C(CN2CCN(c3ccc(C(=O)NS(=O)(=O)c4ccc(N[C@H](CCN5CCOCC5)CSc5ccccc5)c(S(=O)(=O)C(F)(F)F)c4)cc3)CC2)C1 [Navitoclax] (partner 0.5 µM)	0.79

Pending molecule:
IN: Item COc1cc(N2CCC(C(N)=O)CC2)ccc1Nc1nc(N)c(Cl)c(Nc2ccccc2S(=O)(=O)C(C)C)n1 [HG-5-88-01] + C[C@@H](Oc1cc(-c2cnn(C3CCNCC3)c2)cnc1N)c1c(Cl)ccc(F)c1Cl [Crizotinib] (partner 1 µM) : provide relative viability
OUT: 0.782
